Cardiomyocyte (CM) (ErbB4) Avg EC50 by entry:
# ASSAYED_TARGET: ErbB4 on neonatal rat cardiomyocytes (rat) (UniProt Q62956)
# Sequence (Q62956 26-1308): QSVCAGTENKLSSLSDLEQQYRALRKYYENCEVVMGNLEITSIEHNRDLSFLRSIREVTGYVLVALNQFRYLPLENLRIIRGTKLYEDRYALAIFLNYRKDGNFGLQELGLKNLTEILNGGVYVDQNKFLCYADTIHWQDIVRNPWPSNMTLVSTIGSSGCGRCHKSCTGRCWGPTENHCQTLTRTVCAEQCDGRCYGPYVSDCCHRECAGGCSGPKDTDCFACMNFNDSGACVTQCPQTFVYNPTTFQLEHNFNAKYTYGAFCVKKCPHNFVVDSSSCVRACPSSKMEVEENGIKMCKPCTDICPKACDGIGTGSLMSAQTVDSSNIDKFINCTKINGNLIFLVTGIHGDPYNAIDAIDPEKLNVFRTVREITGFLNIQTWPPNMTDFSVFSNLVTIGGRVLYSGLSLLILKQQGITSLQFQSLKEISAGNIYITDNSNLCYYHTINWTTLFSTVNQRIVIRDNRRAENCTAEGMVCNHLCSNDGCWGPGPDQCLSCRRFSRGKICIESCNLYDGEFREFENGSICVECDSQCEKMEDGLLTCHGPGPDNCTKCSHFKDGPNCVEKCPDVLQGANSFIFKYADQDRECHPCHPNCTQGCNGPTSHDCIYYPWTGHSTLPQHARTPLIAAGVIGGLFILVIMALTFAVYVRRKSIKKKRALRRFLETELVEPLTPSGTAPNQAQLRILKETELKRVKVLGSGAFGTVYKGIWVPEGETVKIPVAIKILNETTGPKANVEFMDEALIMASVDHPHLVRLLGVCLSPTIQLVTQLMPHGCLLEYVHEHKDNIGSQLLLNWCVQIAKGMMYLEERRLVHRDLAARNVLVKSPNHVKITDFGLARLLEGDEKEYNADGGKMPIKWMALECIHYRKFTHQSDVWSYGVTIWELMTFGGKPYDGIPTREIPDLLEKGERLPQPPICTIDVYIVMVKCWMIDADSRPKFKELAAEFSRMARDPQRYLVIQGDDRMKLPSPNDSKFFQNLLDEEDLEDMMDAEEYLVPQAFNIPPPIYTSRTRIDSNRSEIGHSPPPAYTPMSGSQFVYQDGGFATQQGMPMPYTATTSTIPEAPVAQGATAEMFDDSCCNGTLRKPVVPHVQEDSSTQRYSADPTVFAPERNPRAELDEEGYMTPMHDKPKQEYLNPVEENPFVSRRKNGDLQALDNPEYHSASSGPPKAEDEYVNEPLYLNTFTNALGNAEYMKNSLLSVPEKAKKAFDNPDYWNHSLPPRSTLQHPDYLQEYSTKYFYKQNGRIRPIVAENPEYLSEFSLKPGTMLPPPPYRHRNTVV
# EXPERIMENTAL_DETAILS: cell-based or functional assay
Entry rule: numbers only, all in pM.

{"BINDER": "huNRG1(S177-Q237)(3A7)::GG::huFcSEFL2 (Pb) (Fc fusion) SHLVKCAEKEKSFCVNGGECFVIEGSSIPSRFLCKCPNEFTGDRCQKVVMASFYKAEELYQGGDKTHTCPPCPAPELLGGPSVFLFPPKPKDTLMISRTPEVTCVVVDVSHEDPEVKFNWYVDGVEVHNAKTKPCEEQYGSTYRCVSVLTVLHQDWLNGKEYKCKVSNKALPAPIEKTISKAKGQPREPQVYTLPPSREEMTKNQVSLTCLVKGFYPSDIAVEWESNGQPENNYKTTPPVLDSDGSFFLYSKLTVDKSRWQQGNVFSCSVMHEALHNHYTQKSLSLSPGK", "Cardiomyocyte (CM) (ErbB4) Avg EC50 (pM)": 366}

Proceed to the following item.
Let me know recorded Cardiomyocyte (CM) (ErbB4) Avg EC50 for huNRG1(S177-Q237)(2H7)::GG::huFcSEFL2 (Pb) (Fc fusion) SHLVKCGEKEKSFCVNGGECYVVEDLSIPSRFLCKCPNEFTGDRCQKVVMASFYKAEELYQGGDKTHTCPPCPAPELLGGPSVFLFPPKPKDTLMISRTPEVTCVVVDVSHEDPEVKFNWYVDGVEVHNAKTKPCEEQYGSTYRCVSVLTVLHQDWLNGKEYKCKVSNKALPAPIEKTISKAKGQPREPQVYTLPPSREEMTKNQVSLTCLVKGFYPSDIAVEWESNGQPENNYKTTPPVLDSDGSFFLYSKLTVDKSRWQQGNVFSCSVMHEALHNHYTQKSLSLSPGK , thanks.
300
